- Study system: T1, human GLP-1 receptor (human, UniProt P43220 24-463)
- T1 construct: whole, on cells; also called hGLP-1R; hGLP1R
- Measurement notes: [125I]-GLP-1 competition SPA, hGLP-1R membranes
Numbered stars: 1 amine (or outer) side, 2 acyl side, 3 side chain; on linkers, the order of the positions; unused ones are H or OH. Square brackets hold non-standard residues; d marks the D form. Side chains are listed from the residue outwards. Ends that are not written are not given here. * marks the point of attachment. C20 diacid = O=C(O)CCCCCCCCCCCCCCCCCCC(=O)*; γGlu = O=C(O)[C@H](CCC(=O)[*:2])N[*:1]; AEEA = NCCOCCOCC(=O)O; Aib = CC(C)(N)C(=O)O
We begin with a simple list: items and their reported pKi.
# pKi = -log10(concentration in molar units)

Guide cases for pKi, answers given:
Prompt: Item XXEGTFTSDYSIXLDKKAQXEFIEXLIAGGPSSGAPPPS (D-Tyr1; Aib2; αMeL13; K17((2-[2-(2-Amino-ethoxy)-ethoxy]-acetyl)2-(γ-Glu)-CO-(CH2)18-CO2H); Aib20; αMeY25; C-terminal NH2) [Example 292] : provide pKi
Completion: 8.92

Prompt: Item F[Aib]EGTFTSDYSILLDKK([AEEA-AEEA-γGlu-C20 diacid])AQ[Aib]AFIEYLIEGGPSSGAPPPS-NH2 [Example 326] : provide pKi
Completion: 8.53

Prompt: Item YXEGTFTSDYSIXLDKKAQXEFIEYLIAGGPSSGAPPPS (Aib2; αMeL13; K17((2-[2-(2-Amino-ethoxy)-ethoxy]-acetyl)2-(γ-Glu)-CO-(CH2)18-CO2H); Aib20; C-terminal NH2, also called GG-731) [Example 289] : provide pKi
Completion: 8.58

Prompt: Item YXEGTXTSDYSIXLDKKAQXEFIXYLIEGGPSSGAPPPS (Aib2; αMeF(2F)6; αMeL13; K17((2-[2-(2-Amino-ethoxy)-ethoxy]-acetyl)2-(γ-Glu)-CO-(CH2)16-CO2H); Aib20; D-Glu24; C-terminal NH2) [Example 231] : provide pKi
Completion: 8.52

Prompt: Item YXEGTFTSDYSIXLDEKAQXAFIEYLIAGGPSSGAPPPS (Aib2; αMeL13; K17((2-[2-(2-Amino-ethoxy)-ethoxy]-acetyl)2-(γ-Glu)-CO-(CH2)18-CO2H); Aib20; C-terminal NH2) [Example 332] : provide pKi
Completion: 8.10

Prompt: Item YXEGTXTSDYSILLDKKAQXEFIEYLIAGGPSSG (Aib2; αMeF(2F)6; K17((2-[2-(2-Amino-ethoxy)-ethoxy]-acetyl)2-(γ-Glu)-CO-(CH2)16-CO2H); Aib20; C-terminal NH2) [Example 314] : provide pKi
Completion: 9.14

Prompt: Item FXEGTFTSDYSIXLDKKAQXAFIEYLIAGGPSSGAPPPS (Aib2; αMeL13; K17((2-[2-(2-Amino-ethoxy)-ethoxy]-acetyl)2-(γ-Glu)-CO-(CH2)18-CO2H); Aib20; C-terminal NH2) [Example 337] : provide pKi
Completion: 8.79

Prompt: Item YXEGTXTSDYSILLDKKAQXAFIEYLIEGGPSSG (Aib2; αMeF(2F)6; K17((2-[2-(2-Amino-ethoxy)-ethoxy]-acetyl)2-(γ-Glu)-CO-(CH2)16-CO2H); Aib20; C-terminal NH2) [Example 302] : provide pKi
Completion: 9.21

New cases:
Prompt: Item YXEGTXTSDVSIXLDXKAQXTFIXXLIEGGPSSGAPPPS (Aib2; αMeF(2F)6; αMeL13; Orn16; K17((2-[2-(2-Amino-ethoxy)-ethoxy]-acetyl)2-(γ-Glu)-CO-(CH2)16-CO2H); Aib20; D-Glu24; αMeY25; C-terminal NH2) [Example 241] : provide pKi
Completion: 9.10

Prompt: Item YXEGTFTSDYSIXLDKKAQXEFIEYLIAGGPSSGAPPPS (Aib2; αMeL13; K17((2-[2-(2-Amino-ethoxy)-ethoxy]-acetyl)-(γ-Glu)-CO-(CH2)18-CO2H); Aib20; C-terminal NH2) [Example 339] : provide pKi
Completion: 8.57

Prompt: Item YXEGTXTSDYSIXLDXKAQXEFIXXLIEGGPSSGAPPPS (Aib2; αMeF(2F)6; αMeL13; Orn16; K17((2-[2-(2-Amino-ethoxy)-ethoxy]-acetyl)2-(γ-Glu)-CO-(CH2)16-CO2H); Aib20; D-Glu24; αMeY25; C-terminal NH2) [Example 236] : provide pKi
Completion: 8.98

Prompt: Item XXEGTFTSDYSIXLDXKAQXAFIXYLIAGGPSSGAPPPS (D-Tyr1; Aib2; αMeL13; Orn16; K17((2-[2-(2-Amino-ethoxy)-ethoxy]-acetyl)2-(γ-Glu)-CO-(CH2)18-CO2H); Aib20; D-Glu24; C-terminal NH2) [Example 291] : provide pKi
Completion: 8.50
